Test system: HepG2
experimental.protocol: Antiproliferative activity against Homo sapiens (human) HepG2 cells assessed as growth inhibition after 48 hr by MTT assay
experimental.setup: HepG2, 48 h
observable: IC50 (µM)
Use µM as the unit, but write only the number.

Q: Enter IC50 (test system HepG2) for `Fc1ccc(CSc2nnc(-c3ccncc3)n2-c2ccccc2)c(F)c1`
A: 10.2

Q: Give IC50 for `O=C(CSc1nnc(-c2ccncc2)n1-c1ccccc1)N/N=C/c1ccc(F)cc1` tested on HepG2.
A: 9.33

Q: Please respond with reported IC50 (system HepG2) for `O=C(CSc1nnc(-c2ccncc2)n1-c1ccccc1)N/N=C/c1ccc([N+](=O)[O-])cc1` .
A: 15.9

Q: Write down measured IC50 (HepG2) for this molecule. `COc1ccc(/C=N/NC(=O)CSc2nnc(-c3ccncc3)n2-c2ccccc2)cc1`
A: 27.1

Q: System HepG2. Read-out IC50. Item `Fc1ccc(CSc2nnc(-c3ccncc3)n2-c2ccccc2)cc1` . Report value.
A: 15.6

Q: Please respond with reported IC50 (system HepG2) for `Clc1cccc(CSc2nnc(-c3ccncc3)n2-c2ccccc2)c1` .
A: 11.2

Q: Print HepG2 IC50 for `O=C(CSc1nnc(-c2ccncc2)n1-c1ccccc1)N/N=C/c1cc(Br)ccc1O` .
A: 4.39

Q: Consider the molecule `O=C(CSc1nnc(-c2ccncc2)n1-c1ccccc1)N/N=C/c1ccccc1` tested on HepG2; state its IC50.
A: 18.6

Q: Identify measured IC50 obtained with HepG2 for `Clc1ccccc1CSc1nnc(-c2ccncc2)n1-c1ccccc1` .
A: 15.7

Q: Using HepG2 as the test system, report measured IC50 of `O=C(CSc1nnc(-c2ccncc2)n1-c1ccccc1)N/N=C/c1ccccc1O` .
A: 11.3

Q: Write down measured IC50 (HepG2) for this molecule. `Brc1ccccc1CSc1nnc(-c2ccncc2)n1-c1ccccc1`
A: 17.1

Q: Give measured IC50 for `O=C(CSc1nnc(-c2ccncc2)n1-c1ccccc1)N/N=C/C=C/c1ccccc1` (HepG2).
A: 8.28

Q: Given `O=C(CSc1nnc(-c2ccncc2)n1-c1ccccc1)N/N=C/c1ccc(Br)cc1` , report its IC50 on HepG2.
A: 5.99

Q: Please indicate recorded IC50 of `O=C(CSc1nnc(-c2ccncc2)n1-c1ccccc1)N/N=C/c1ccccc1F` measured with HepG2.
A: 15.2
